Biological target: MDM2 (Homo sapiens)
Sequence (Q00987 whole entry): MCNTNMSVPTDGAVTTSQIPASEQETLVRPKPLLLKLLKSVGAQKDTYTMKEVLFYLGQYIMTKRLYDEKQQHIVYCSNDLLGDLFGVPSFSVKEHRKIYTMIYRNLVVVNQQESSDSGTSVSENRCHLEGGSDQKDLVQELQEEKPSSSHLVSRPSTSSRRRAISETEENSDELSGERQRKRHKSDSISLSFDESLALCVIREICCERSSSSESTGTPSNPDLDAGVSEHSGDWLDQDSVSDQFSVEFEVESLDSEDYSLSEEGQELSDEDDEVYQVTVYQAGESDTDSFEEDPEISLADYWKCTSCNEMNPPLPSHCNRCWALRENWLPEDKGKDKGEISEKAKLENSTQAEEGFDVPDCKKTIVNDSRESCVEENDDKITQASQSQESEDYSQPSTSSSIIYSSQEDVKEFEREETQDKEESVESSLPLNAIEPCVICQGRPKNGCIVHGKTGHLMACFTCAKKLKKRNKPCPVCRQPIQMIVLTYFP
Test: MDM2 binding screen: displacement of fluorescent p53 peptide probe FP53 (fluorescence polarization)
Settings: 10 µM macrocycle concentration; crude acylated macrocycle (scaffold Mpa-AA1-AA2-AA3 x carboxylic acid); p53-based fluorescent peptide, human MDM2
Numbered stars: 1 amine (or outer) side, 2 acyl side, 3 side chain; on linkers, the order of the positions; unused ones are H or OH. Bridge positions count the residues as written; N and C are the ends. Square brackets hold non-standard residues; d marks the D form. Peptide text beside a SMILES is read from it. * marks the point of attachment. Nicotinoyl(6-OMe) = COc1ccc(C(=O)*)cn1; Benzoyl(4-Cl) = O=C(c1ccc(Cl)cc1)*; Cysteamide = C(CS[*:3])N[*:1]; X8 = O=C(c1ccc(=O)[nH]n1)*; Isovaleryl = CC(C)CC(=O)*; Dap = NC[C@H](N)C(=O)O; Mpa = O=C(O)CCS
attribute_measured: fraction fluorescent probe displaced

Reference set (2 entries):
O=C(NC[C@@H]1NC(=O)[C@@H]2CCCN2C(=O)CCSSCCNC(=O)[C@H](Cc2ccccc2)NC1=O)c1ccc(=O)[nH]n1 [X-B1-D3-F + A86] ([Mpa]P[Dap](X8)F-Cysteamide; disulfide 1-C) : 0.01272
COc1ccc(C(=O)NC[C@@H]2NC(=O)[C@@H]3CCCN3C(=O)CCSSCCNC(=O)[C@H](Cc3ccccc3)NC2=O)cn1 [X-B1-D3-F + A10] ([Mpa]P[Dap](Nicotinoyl(6-OMe))F-Cysteamide; disulfide 1-C) : 0.01535

Query: Any idea what fraction fluorescent probe displaced came out for O=C(NC[C@@H]1NC(=O)[C@@H]2CCCN2C(=O)CCSSCCNC(=O)[C@H](Cc2ccccc2)NC1=O)c1ccc(Cl)cc1 [X-B1-D3-F + A25] ([Mpa]P[Dap](Benzoyl(4-Cl))F-Cysteamide; disulfide 1-C) on MDM2 (Homo sapiens)?
Reply: 0.2195

Query: Any idea what fraction fluorescent probe displaced came out for CC(C)CC(=O)NC[C@@H]1NC(=O)[C@@H]2CCCN2C(=O)CCSSCCNC(=O)[C@H](Cc2ccccc2)NC1=O [X-B1-D3-F + A8] ([Mpa]P[Dap](Isovaleryl)F-Cysteamide; disulfide 1-C) on MDM2 (Homo sapiens)?
Reply: -0.02974

FYI, the data here is from paper PMC9250534.
